# system tested: catalytic domain (JH1, amino acids 808-1132) of human JAK2 (Homo sapiens (Human), UniProt O60674)
# Sequence (O60674 808-1132): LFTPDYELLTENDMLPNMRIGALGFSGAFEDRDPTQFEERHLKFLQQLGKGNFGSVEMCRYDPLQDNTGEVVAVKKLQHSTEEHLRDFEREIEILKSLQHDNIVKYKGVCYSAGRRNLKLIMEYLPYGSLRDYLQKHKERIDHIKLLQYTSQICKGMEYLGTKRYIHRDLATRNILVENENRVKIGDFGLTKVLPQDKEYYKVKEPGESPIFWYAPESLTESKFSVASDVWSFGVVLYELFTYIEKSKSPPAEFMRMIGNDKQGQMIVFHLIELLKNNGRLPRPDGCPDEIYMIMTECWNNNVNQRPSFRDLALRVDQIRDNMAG
# test method notes: JAK2 HTRF Enzyme Activity Assay
# study conditions: JAK2 0.015 nM, ATP (30 μM or 1 mM), 60 minutes at 25° C.
measurement name: IC50

Field request: IC50 | item: Cc1cc(-c2c(-c3ccccc3)c3c4cc(-c5cnn(C)c5)[nH]c4ncc3n(C)c2=O)on1 100 to 500 nM

Let us now turn to Cc1c(-c2ccc(C#N)cc2)c(=O)n(C)c2cnc3[nH]c(-c4ccc(CN5CCC(S(C)(=O)=O)CC5)cc4)cc3c12 100 to 500 nM

Further, for Cc1c(-c2ccc(Cl)cc2)c(=O)n(C)c2cnc3[nH]c(-c4ccc(CN5CCC(S(C)(=O)=O)CC5)cc4)cc3c12 ? 100 to 500 nM

# iterate: COCc1ccc(-c2c(-c3cc(C)no3)c(=O)n(C)c3cnc4[nH]c(-c5cnn(C)c5)cc4c23)cc1 100 to 500 nM
